tested on: 171881-019-R-J1-PDC tumor spheroid viability; experiment: Anticancer human tumor 171881-019-R-J1-PDC patient-derived invasive breast carcinoma cell line growth inhibition [PI3K]; conditions: second compound 0.01 µM; first compound 0.0316 µM; hits give low values; spheroids with HUVEC and MSC
viability, T/C strictly less than 70% = True. Otherwise False.

Problem: In the record for C[C@@H](NC(=O)c1ncnc(N)c1Cl)c1ncc(C(=O)Nc2cc(C(F)(F)F)c(Cl)cn2)s1 + CC(Nc1ccc2c(c1)OCCn1cc(N3C(=O)OCC3C(F)F)nc1-2)C(N)=O , is viability, T/C less than 70%?
Result: False

Problem: CC(C)n1nc(-c2ccc3oc(N)nc3c2)c2c(N)ncnc21 + CC(Nc1ccc2c(c1)OCCn1cc(N3C(=O)OCC3C(F)F)nc1-2)C(N)=O , same question.
Result: True

Problem: Now consider Cn1ncc(Cl)c1-c1cc(C(=O)NC(CN)Cc2cccc(F)c2)sc1Cl (centres undefined) + CC(Nc1ccc2c(c1)OCCn1cc(N3C(=O)OCC3C(F)F)nc1-2)C(N)=O and answer again.
Result: True

Problem: One more compound: C[C@@H](NC(=O)c1ncnc(N)c1Cl)c1ncc(C(=O)Nc2cc(C(F)(F)F)c(Cl)cn2)s1 + COc1c(OCCCN2CCOCC2)ccc2c3n(c(=NC(=O)c4cnc(N)nc4)nc12)CCN3
Result: True

---

system: 171881-019-R-J1-PDC tumor spheroid viability; test: Anticancer human tumor 171881-019-R-J1-PDC cell line growth inhibition [PI3K]; details: second compound 0.01 µM; first compound 1 µM; hits give low values; spheroids with HUVEC and MSC;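 note: spheroids exposed to compound for 7 days before viability read; 100% = DMSO vehicle-treated spheroids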
// classify: if (viability, T/C < 50%) criterion met else criterion not met

- compound: "CC(C)NCC(C(=O)N1CCN(c2ncnc3c2C(C)CC3O)CC1)c1ccc(Cl)cc1 (stereo not given) + COc1c(OCCCN2CCOCC2)ccc2c3n(c(=NC(=O)c4cnc(N)nc4)nc12)CCN3"
  categoryLabel: "criterion met"
- compound: "CC(Cn1ccc(-c2ccc(C#N)c(Cl)c2)n1)NC(=O)c1cc(C(C)O)[nH]n1 (stereo not given) + CC(Nc1ccc2c(c1)OCCn1cc(N3C(=O)OCC3C(F)F)nc1-2)C(N)=O"
  categoryLabel: "criterion not met"

Consider the additional compound presented here.
Problem: Consider C#Cc1c(F)ccc2cc(O)cc(-c3ncc4c(N5CC6CCC(C5)N6)nc(OCC56CCCN5CC(F)C6)nc4c3F)c12 (stereo not given) + COc1c(OCCCN2CCOCC2)ccc2c3n(c(=NC(=O)c4cnc(N)nc4)nc12)CCN3 . Does its viability, T/C lie strictly below 50%?
Result: criterion met

---

tested on: 171881-019-R-J1-PDC tumor spheroid viability; assay: Anticancer human tumor 171881-019-R-J1-PDC cell line growth inhibition [PI3K]; settings: second compound 0.1 µM; first compound 10 µM; hits give low values; spheroids with HUVEC and MSC;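 note: spheroids exposed to compound for 7 days before viability read; 100% = DMSO vehicle-treated spheroids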
reportedMetric: viability, T/C (%)
Use % as the unit, but write only the number.

- molecule: "CCCS(=O)(=O)Nc1ccc(F)c(C(=O)c2c[nH]c3ncc(-c4ccc(Cl)cc4)cc23)c1F + CC(Nc1ccc2c(c1)OCCn1cc(N3C(=O)OCC3C(F)F)nc1-2)C(N)=O"
  quantitativeResult: 5.11
- molecule: "CC1(C)CCC(CN2CCN(c3ccc(C(=O)NS(=O)(=O)c4ccc(NCC5CCOCC5)c([N+](=O)[O-])c4)c(Oc4cnc5[nH]ccc5c4)c3)CC2)=C(c2ccc(Cl)cc2)C1 + COc1c(OCCCN2CCOCC2)ccc2c3n(c(=NC(=O)c4cnc(N)nc4)nc12)CCN3"
  quantitativeResult: 7.62
- molecule: "CC1(C)CCC(Nc2ncc(C(F)(F)F)c(-c3c[nH]c4c(P(C)(C)=O)c(C#N)ccc34)n2)CN1 (stereo unspecified) + COc1c(OCCCN2CCOCC2)ccc2c3n(c(=NC(=O)c4cnc(N)nc4)nc12)CCN3"
  quantitativeResult: 0.37

Problem: Lab request: please report viability, T/C under test system 171881-019-R-J1-PDC tumor spheroid viability for CC1(C)CCC(Nc2ncc(C(F)(F)F)c(-c3c[nH]c4c(P(C)(C)=O)c(C#N)ccc34)n2)CN1 (stereo unspecified) + CC(Nc1ncnc2nc[nH]c12)c1cc2cccc(Cl)c2c(=O)n1-c1ccccc1
Result: 23.3

Problem: Please do the same for CNC(=O)c1ccc(N2C(=S)N(c3ccc(C#N)c(C(F)(F)F)c3)C(=O)C2(C)C)cc1F + CC(Nc1ncnc2nc[nH]c12)c1cc2cccc(Cl)c2c(=O)n1-c1ccccc1 as well.
Result: 69.8
